Molecular target: T1, Cynomolgus monkey DLL3 on HEK293 cells (HEK293-cyno DLL3) (Cynomolgus monkey, UniProt Q9NYJ7 27-618 (human entry))
T1 chain: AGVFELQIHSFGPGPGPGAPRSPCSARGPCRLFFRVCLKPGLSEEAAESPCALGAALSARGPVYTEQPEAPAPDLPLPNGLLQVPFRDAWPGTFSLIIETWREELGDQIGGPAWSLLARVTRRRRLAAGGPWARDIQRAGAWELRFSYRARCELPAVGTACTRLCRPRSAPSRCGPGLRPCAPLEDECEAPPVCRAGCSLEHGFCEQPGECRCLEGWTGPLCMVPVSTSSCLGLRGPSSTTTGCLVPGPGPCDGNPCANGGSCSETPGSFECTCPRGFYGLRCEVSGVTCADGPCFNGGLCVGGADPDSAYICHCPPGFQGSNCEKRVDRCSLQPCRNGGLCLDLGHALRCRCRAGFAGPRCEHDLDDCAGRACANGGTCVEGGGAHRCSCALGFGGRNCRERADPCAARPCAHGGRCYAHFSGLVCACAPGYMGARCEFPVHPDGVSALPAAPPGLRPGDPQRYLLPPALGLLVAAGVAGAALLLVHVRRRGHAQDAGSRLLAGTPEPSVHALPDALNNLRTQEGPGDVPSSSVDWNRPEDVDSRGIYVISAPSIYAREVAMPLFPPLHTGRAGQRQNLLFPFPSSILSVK
Test: flow cytometry, HEK293-cyno DLL3 cells
Each record here notes measured Top MFI.
measured_quantity: Top MFI

binder	measured_quantity	data_value
hDLL3-12-2 camelid-derived humanized anti-DLL3 antibody (antibody, V domains shown) VH: QVQLVESGGGVVQPGRSLRLSCAASGFAFSSYDMHWVRQAPGKDFEWVSSISRDGRGPRYADSVKGRFTISRDNSKNTLYLQMNSLRAEDTAVYYCSKGYPIMGGTTQGTLVTVSS	Top MFI	190 MFI
hDLL3-3-2 camelid-derived humanized anti-DLL3 antibody (antibody, V domains shown) VH: EVQLVESGGGLVQPGGSLRLSCKSPTYTISSGYMGWFRQAPGKEREGVAAIYIGGSTTLYADSVKGRFTISRDNSKNTLYLQMNSLRAEDTAVYYCAAQLRPNSAYHPLDGRKYNYWGQGTLVTVSS	Top MFI	344 MFI
hDLL3-3-1 camelid-derived humanized anti-DLL3 antibody (antibody, human IgG1, V domains shown) VH: EVQLVESGGGLVQPGGSLRLSCAASTYTISSGYMGWFRQAPGKEREGVAAIYIGGSTTLYADSVKGRFTISRDNSKNTLYLQMNSLRAEDTAVYYCAAQLRPNSAYHPLDGRKYNYWGQGTLVTVSS	Top MFI	346 MFI
DLL3-122 camelid-derived anti-DLL3 chimeric antibody (antibody, human IgG1, V domains shown) VH: QVQLVESGGGSVQAGGSLRLSCTASGDTYRSYCMGWFRKAPGKEREGVADIVSDGSTSYADSVKGRFTISKDNAKNTLYLQMNSLKPEDTAMYYCAVDRGGSGGYCYTGRYDYWGQGTQVTVSS	Top MFI	351 MFI
